- subject of test: 5HT-transporter (Homo sapiens, UniProt P31645)
- Construct: Human platelet membranes (Oceanix Biosciences Corporation, Hanover, Md., USA) were thawed; tissue Oceanix Biosciences Corporation, Hanover, Md., USA; host or cells: human platelet membranes
- Sequence (P31645 whole entry): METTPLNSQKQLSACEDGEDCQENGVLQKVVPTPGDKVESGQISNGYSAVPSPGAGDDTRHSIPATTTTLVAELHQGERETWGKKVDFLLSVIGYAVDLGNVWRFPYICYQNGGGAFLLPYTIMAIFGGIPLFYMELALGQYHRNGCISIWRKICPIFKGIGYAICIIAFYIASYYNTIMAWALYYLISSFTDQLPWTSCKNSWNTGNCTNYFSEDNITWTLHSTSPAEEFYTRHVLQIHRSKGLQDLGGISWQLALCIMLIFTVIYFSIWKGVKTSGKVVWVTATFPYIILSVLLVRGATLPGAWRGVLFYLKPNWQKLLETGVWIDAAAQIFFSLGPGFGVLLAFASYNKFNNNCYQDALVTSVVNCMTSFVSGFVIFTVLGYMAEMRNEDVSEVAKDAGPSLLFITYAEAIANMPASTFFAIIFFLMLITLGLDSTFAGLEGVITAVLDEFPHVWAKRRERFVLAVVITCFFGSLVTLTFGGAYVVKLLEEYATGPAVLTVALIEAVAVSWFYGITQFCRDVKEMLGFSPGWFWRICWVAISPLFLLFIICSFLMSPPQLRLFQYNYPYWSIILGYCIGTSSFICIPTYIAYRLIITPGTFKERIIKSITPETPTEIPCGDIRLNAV
- assay protocol: Binding experiment for the 5HT-transporter ([3H]paroxetine, human platelet membranes)
- measurement parameters: [3H]paroxetine 0.5 nM, 60 min at 25° C., read-out: h-5HTT pIC50 (converted)
property name: log10 of IC50 (log10 of the value in nM)
Use the decimal logarithm of IC50 (nM).

Example results:
# log10 of IC50 of COCCNC(=O)NCc1ccc(-n2ccnc(NC3CCN(Cc4ccc5ccccc5c4)CC3)c2=O)cc1 [1-45] = 1.40

# log10 of IC50 of CNCCCn1ccnc(NC2CCN(Cc3ccc4ccccc4c3)CC2)c1=O [1-04] = 2.40

# log10 of IC50 of O=c1[nH]c(-c2cccc(CNCCF)c2)c(Cl)nc1NC1CCN(Cc2ccc3ccccc3c2)CC1 [7-03] = 2.90

# log10 of IC50 of NC(=O)CCNCc1ccc(-n2ccnc(NC3CCN(Cc4ccc5ccccc5c4)CC3)c2=O)cc1 [1-56] = 1.20

# log10 of IC50 of CCOC(=O)CCCCn1ccnc(NC2CCN(Cc3ccc4ccccc4c3)CC2)c1=O [3-08] = 1.00

# log10 of IC50 of O=c1c(NC2CCN(Cc3ccc4ccccc4c3)CC2)nccn1CCN1CCOCC1 [2-09] = 2.70

Continuing:
# log10 of IC50 of O=c1c(NC2CCN(Cc3ccc4ccccc4c3)CC2)nccn1-c1ccncc1 [6-07] = 2.00

# log10 of IC50 of O=c1c(NC2CCN(Cc3ccc4ccccc4c3)CC2)nccn1-c1ccc(CN2CCCCC2)cc1 [2-11] = 0.90

# log10 of IC50 of O=c1c(NC2CCN(Cc3ccc4ccccc4c3)CC2)nccn1CCN1CCCCC1 [2-10] = 2.20

----------
- subject of test: human adrenergic-α2C receptor (Homo sapiens, UniProt P18825)
- Construct: expressed in transfected cells; host or cells: CHO cells, stably transfected; membrane preparation
- assay protocol: Radioligand binding experiment for hα2C-adrenoceptor ([3H]raulwolscine)
- measurement parameters: [3H]raulwolscine 1 nM, 60 minutes at 25° C.; read-out: h-α2C pIC50 (converted)
property name: log10(IC50) (log10 of the value in nM)
Use the decimal logarithm of IC50 (nM).

# log10(IC50) of C=CCSc1ncccc1C(=O)NCc1ccc(-n2ccnc(NC3CCN(Cc4ccc5ccccc5c4)CC3)c2=O)cc1 = 1.80

# log10(IC50) of CC(=O)NCCNCc1ccc(-n2ccnc(NC3CCN(Cc4ccc5ccccc5c4)CC3)c2=O)cc1 = 1.10

# log10(IC50) of O=C(Cn1ccnc(NC2CCN(Cc3ccc4ccccc4c3)CC2)c1=O)NCc1ccc(F)cc1 = 1.10

# log10(IC50) of CCCC(=O)N(Cc1ccc(-n2ccnc(NC3CCN(Cc4ccc5ccccc5c4)CC3)c2=O)cc1)C(=O)CCC = 1.60

# log10(IC50) of CCCCNc1cccc(-n2ccnc(NC3CCN(Cc4ccc5ccccc5c4)CC3)c2=O)c1 = 1.20

Continuing:
# log10(IC50) of O=c1c(NC2CCN(Cc3ccc4ccccc4c3)CC2)nccn1CCO = 1.40

# log10(IC50) of O=C(NCc1ccc(-n2ccnc(NC3CCN(Cc4ccc5ccccc5c4)CC3)c2=O)cc1)NCc1cc(F)cc(C(F)(F)F)c1 = 2.30

# log10(IC50) of O=c1c(NC2CCN(Cc3ccc4ccccc4c3)CC2)nccn1-c1ccc(CNCC2CCCO2)c(F)c1 (centres unmarked) = 0.40

----------
- subject of test: human adrenergic-α2C receptor (Homo sapiens, UniProt P18825)
- Construct: expressed in transfected cells; host or cells: CHO cells, stably transfected; membrane preparation
- Sequence (P18825 1-462): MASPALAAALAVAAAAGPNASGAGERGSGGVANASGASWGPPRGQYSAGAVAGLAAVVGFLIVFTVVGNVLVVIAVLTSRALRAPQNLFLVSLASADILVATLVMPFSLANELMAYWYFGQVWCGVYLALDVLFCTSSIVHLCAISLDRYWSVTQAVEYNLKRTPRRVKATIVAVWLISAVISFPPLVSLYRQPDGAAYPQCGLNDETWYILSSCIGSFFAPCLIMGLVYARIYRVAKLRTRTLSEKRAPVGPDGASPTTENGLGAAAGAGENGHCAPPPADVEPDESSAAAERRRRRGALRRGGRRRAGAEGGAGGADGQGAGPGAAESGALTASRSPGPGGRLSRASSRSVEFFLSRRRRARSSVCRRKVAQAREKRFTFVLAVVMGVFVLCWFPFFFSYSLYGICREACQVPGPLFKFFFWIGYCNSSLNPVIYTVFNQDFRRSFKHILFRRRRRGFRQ
- assay protocol: Radioligand binding experiment for hα2C-adrenoceptor ([3H]raulwolscine)
- measurement parameters: [3H]raulwolscine 1 nM, 60 minutes at 25° C.; read-out: h-α2C pIC50 (converted)
Response field label takes class 1 when IC50 is strictly below 20 nM and class 0 in all other cases.

Example results:
Exam item: Is the reported IC50 for O=c1c(NC2CCN(Cc3ccc4ccccc4c3)CC2)nccn1-c1ccc2c(c1)CN(Cc1ncc[nH]1)CC2 strictly below 20 nM?
Marked response: class 1

Exam item: Is the reported IC50 for CCOC(=O)N1CCC(NC(=O)NCc2ccc(-n3ccnc(NC4CCN(Cc5ccc6ccccc6c5)CC4)c3=O)cc2)CC1 strictly below 20 nM?
Marked response: class 0

Exam item: Is the reported IC50 for CCOC(CCn1ccnc(NC2CCN(Cc3ccc4ccccc4c3)CC2)c1=O)OCC strictly below 20 nM?
Marked response: class 0

Exam item: Is the reported IC50 for O=C(c1ccc(-n2ccnc(NC3CCN(Cc4ccc5ccccc5c4)CC3)c2=O)cc1)N1CCOCC1 strictly below 20 nM?
Marked response: class 0

Exam item: Is the reported IC50 for CCN(CC)CCC(=O)NCc1ccc(-n2ccnc(NC3CCN(Cc4ccc5ccccc5c4)CC3)c2=O)cc1 strictly below 20 nM?
Marked response: class 1

Continuing:
Exam item: Is the reported IC50 for O=c1c(NC2CCN(Cc3ccc4ccccc4c3)CC2)nccn1-c1ccc2c(c1)OCCO2 strictly below 20 nM?
Marked response: class 0

Exam item: Is the reported IC50 for O=C(NCc1ccc(-n2ccnc(NC3CCN(Cc4ccc5ccccc5c4)CC3)c2=O)cc1)c1ccno1 strictly below 20 nM?
Marked response: class 1

Exam item: Is the reported IC50 for O=Cc1ccc(-n2ccnc(NC3CCN(Cc4ccc5ccccc5c4)CC3)c2=O)cc1F strictly below 20 nM?
Marked response: class 0

Exam item: Is the reported IC50 for COC(=O)CCCC(=O)NCc1ccc(-n2ccnc(NC3CCN(Cc4ccc5ccccc5c4)CC3)c2=O)cc1 strictly below 20 nM?
Marked response: class 0

Exam item: Is the reported IC50 for COc1ccc(Cn2c(-c3ccc(CNCC4CCCO4)cc3)c(Cl)nc(NC3CCN(Cc4ccc5ccccc5c4)CC3)c2=O)cc1 (stereo not drawn) strictly below 20 nM?
Marked response: class 0

Exam item: Is the reported IC50 for COCCNCc1ccc(-n2ccnc(NC3CCN(Cc4ccc5ccccc5c4)CC3)c2=O)cc1 strictly below 20 nM?
Marked response: class 1

Exam item: Is the reported IC50 for O=c1c(NC2CCN(Cc3ccc4ccccc4c3)CC2)nccn1-c1ccc(CNCc2ccccn2)cc1 strictly below 20 nM?
Marked response: class 1

----------
- subject of test: 5HT-transporter (Homo sapiens, UniProt P31645)
- Construct: Human platelet membranes (Oceanix Biosciences Corporation, Hanover, Md., USA) were thawed; tissue Oceanix Biosciences Corporation, Hanover, Md., USA; host or cells: human platelet membranes
- assay protocol: Binding experiment for the 5HT-transporter ([3H]paroxetine, human platelet membranes)
- measurement parameters: [3H]paroxetine 0.5 nM, 60 min at 25° C., read-out: h-5HTT pIC50 (converted)
compounds and their reported log10 of IC50
Use the decimal logarithm of IC50 (nM).

Example results:
# log10 of IC50 of CCCNC(=O)NCc1ccc(-n2ccnc(NC3CCN(Cc4ccc5ccccc5c4)CC3)c2=O)cc1 = 1.70

# log10 of IC50 of CC(C)(C)OC(=O)NCc1ccc(Cn2ccnc(N3CCN(Cc4cccc5ccccc45)CC3)c2=O)cc1 = 3.10

Continuing:
# log10 of IC50 of O=c1c(NC2CCN(Cc3ccc4ccccc4c3)CC2)nccn1-c1ccc(CNCc2ccccn2)cc1 = 0.90

# log10 of IC50 of COC(CCn1ccnc(NC2CCN(Cc3ccc4ccccc4c3)CC2)c1=O)OC = 2.50

# log10 of IC50 of CCCN(C)C(=O)Cn1ccnc(NC2CCN(Cc3ccc4ccccc4c3)CC2)c1=O = 3.30

----------
- subject of test: 5HT-transporter (Homo sapiens)
- Construct: Human platelet membranes (Oceanix Biosciences Corporation, Hanover, Md., USA) were thawed; tissue Oceanix Biosciences Corporation, Hanover, Md., USA; host or cells: human platelet membranes
- assay protocol: Binding experiment for the 5HT-transporter ([3H]paroxetine, human platelet membranes)
- measurement parameters: [3H]paroxetine 0.5 nM, 60 min at 25° C., read-out: h-5HTT pIC50 (converted)
property name: IC50 (nM)
Supply the numeric figure in nM, leaving out any unit text.

Entry COc1ccc(Cn2c(-c3cccc(CNCC4CCCO4)c3)c(Cl)nc(NC3CCN(Cc4ccc5ccccc5c4)CC3)c2=O)cc1 (stereo not shown) ; assay system 5HT-transporter (Homo sapiens); IC50 recorded at 100

Attention now turns to another entry.
Entry Cc1ccc(N2CCN(C(=O)Cn3ccnc(NC4CCN(Cc5ccc6ccccc6c5)CC4)c3=O)CC2)cc1C ; assay system 5HT-transporter (Homo sapiens); IC50 recorded at 63.1
